Target: Inward rectifier potassium channel 2 (Mus musculus) (UniProt P35561)
Sequence (P35561 whole entry, looked up): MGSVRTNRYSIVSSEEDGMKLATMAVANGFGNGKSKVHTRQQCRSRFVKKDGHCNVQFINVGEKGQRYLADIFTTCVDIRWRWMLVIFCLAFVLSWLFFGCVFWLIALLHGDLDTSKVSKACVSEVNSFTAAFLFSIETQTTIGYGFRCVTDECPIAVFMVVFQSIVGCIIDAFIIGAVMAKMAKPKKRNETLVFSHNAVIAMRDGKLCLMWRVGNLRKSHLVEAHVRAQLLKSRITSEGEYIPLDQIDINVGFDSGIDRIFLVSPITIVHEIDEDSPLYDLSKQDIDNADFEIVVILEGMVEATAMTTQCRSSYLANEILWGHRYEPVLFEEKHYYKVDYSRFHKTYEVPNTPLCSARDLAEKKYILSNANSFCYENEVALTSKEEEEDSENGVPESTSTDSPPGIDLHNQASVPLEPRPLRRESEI
Test: blocks the mouse Kir2.1 inward-rectifier potassium channel (AID 1672);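 also: channel flux triggered by added potassium and thallium sulfate stimulus; B-score of peak minus minimum fluorescence over baseline after thallium stimulus; more negative B-score means stronger Kir2.1 block with less thallium influx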
Settings: HEK293-Kir2.1, FluxOR thallium flux fluorescence; at 10 µM; active compounds read low
Screen size: about 310,000 compounds; about 2,600 (0.84%) were called active. What follows is part of a selection rich in actives, with near analogues and random picks from the rest.
Below is a list of entries, each paired with its recorded B-score value.
TEST READOUT: B-score

[O-][n+]1ccc(OCc2ccccc2)cc1 : 0.47
CCOc1cc(C(=O)Nc2ccc(S(=O)(=O)Nc3cnc4ccccc4n3)cc2)cc(OCC)c1OCC : 1.91
C=CCn1c(=O)c2ccccc2n2c(SCC(=O)N3CCCc4ccccc43)nnc12 : 0.08
CC(C)COc1ccc(C(=O)OCC(=O)NCCC2=CCCCC2)cc1 : -0.32
CC(C)(C)S(=O)(=O)c1ccccc1-c1noc(-c2ccccc2)c1C(N)=O : -0.65
COc1ccc2oc(C(=O)OCC(=O)N(CC(C)C)c3c(N)n(Cc4ccccc4)c(=O)[nH]c3=O)c(C)c2c1 : 0.5
O=C(CNC(=O)C12CC3CC(CC(C3)C1)C2)OCC(=O)N1CCCCC1 : 1.97
CCCC(=O)C1CCN(Cc2ccccc2)CC1 : -3.46
CCN(CC(=O)Nc1cccc(S(=O)(=O)N2CCCCC2)c1)Cc1ccccc1 : -0.91
COc1ccc(S(=O)(=O)NCc2cccnc2)cc1NC(=O)c1ccc(C)cc1 : -1.69
O=Cc1ccc(Oc2cccc(C(F)(F)F)c2)nc1 : 0.35
CCNC(=S)Nc1cccc(Cl)c1C : 0.45
CCN(CC(=O)Nc1ccccc1C(F)(F)F)C(=O)CSCc1c(C)noc1C : -0.18
Cc1cc(C)c(-c2csc(NC(=O)CCCc3nc4ccccc4c(=O)[nH]3)n2)c(C)c1 : 0.9
Cn1c(SCC(=O)N2CCCc3ccccc32)nc2ccccc2c1=O : -6.03
COc1cccc(CNC(=O)C(=O)NCCC2CCCCN2S(=O)(=O)c2ccc(C)cc2)c1 (configuration not stated) : -0.02
Cc1cccc(N2CC(C(=O)Nc3ccccc3N3CCCC3)CC2=O)c1C (configuration not stated) : 0.2
COc1ccccc1NC(=O)C(C)OC(=O)c1ccc(-n2cnnn2)cc1 (configuration not stated) : 1.19
Cc1nc(N)[nH]c(=O)c1Oc1cccc(C(F)(F)F)c1 : 0.08
CCOc1ccc(NS(=O)(=O)c2ccc(C(=O)NCC(c3ccccc3OC)N3CCCC3)cc2)cc1 (configuration not stated) : -0.36
CC12CN(Cc3ccccc3)CC(C)(CN(Cc3ccccc3)C1)C2=NO : -8.19
Cc1cc(OCC(=O)N(C)c2c(N)n(Cc3ccccc3)c(=O)[nH]c2=O)c(C(C)C)cc1Cl : -0.39
